Biological target: Human 5-lipoxygenase (Homo sapiens)
Construct: purchased Cayman 60402; host or cells: insect cells
Sequence (P09917 1-674): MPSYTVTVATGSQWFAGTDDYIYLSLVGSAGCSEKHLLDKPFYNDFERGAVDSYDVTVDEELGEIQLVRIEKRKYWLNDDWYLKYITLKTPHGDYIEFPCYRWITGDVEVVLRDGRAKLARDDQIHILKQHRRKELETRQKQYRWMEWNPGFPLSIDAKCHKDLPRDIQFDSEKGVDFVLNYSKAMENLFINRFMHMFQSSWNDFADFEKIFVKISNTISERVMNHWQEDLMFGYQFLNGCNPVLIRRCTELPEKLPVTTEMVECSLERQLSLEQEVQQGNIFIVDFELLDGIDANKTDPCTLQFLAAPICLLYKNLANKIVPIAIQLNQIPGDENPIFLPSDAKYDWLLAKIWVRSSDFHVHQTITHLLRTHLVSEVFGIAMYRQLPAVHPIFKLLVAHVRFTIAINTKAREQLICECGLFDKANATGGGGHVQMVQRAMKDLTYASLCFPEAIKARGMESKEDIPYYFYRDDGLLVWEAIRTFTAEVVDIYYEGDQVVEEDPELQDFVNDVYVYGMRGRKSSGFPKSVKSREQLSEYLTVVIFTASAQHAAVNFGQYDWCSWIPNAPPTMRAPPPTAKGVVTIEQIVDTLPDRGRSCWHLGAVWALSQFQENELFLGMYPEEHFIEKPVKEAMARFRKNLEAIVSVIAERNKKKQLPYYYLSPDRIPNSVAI
Assay: Activity of compounds against 5-LO enzyme (LTB4 measurement and/or fluorescence method)
Type: biochemical
Conditions: 5-LO, single concentration of 10 uM in duplicate
Description: The activity of compounds against 5-LO were determined by measuring LTB4 (leukotriene B4) levels and/or by a fluorescence method. Both approaches are outlined in more detail below; […] Relative quantification of LTB4 and LTB4-d4 (Internal Standard) was done using multi reaction monitoring (MRM) of the transitions of m/z 335→195 for LTB4, 339→197 for LTB4-d4 in electrospray ionization (ESI) negative mode. […]
experimental readout: inhibition at 10 µM

Entry `CCc1nc2cc(Cl)ccn2c1C(=O)NCc1ccc2oc(-c3ccc(OC(F)(F)F)cc3)nc2c1` has what inhibition at 10 µM? < 40%

Try this compound too: `Cc1nc2ccccn2c1C(=O)NCc1ccc(C(=O)O)cc1` < 40%

Let us now turn to `CCc1nc2cc(Cl)ccn2c1C(=O)NCc1ccc2[nH]c(CN3CCOCC3)nc2c1` < 40%

What do you get for `CCc1nc2cc(Cl)ccn2c1C(=O)NCc1ccc(N2CCC(Cc3ccccc3)CC2)cc1` ? > 69%

Same for `CCc1nc2ccccn2c1C(=O)NCc1ccc2c(ccn2C)c1` < 40%

Repeat for the following compound: `CCc1nc2ccc(C(F)(F)F)cn2c1C(=O)NCc1ccc(N2CCC(Oc3ccc(OC(F)(F)F)cc3)CC2)cc1` > 69%

Repeat for the following compound: `CCc1nc2ccc(Cl)cn2c1C(=O)NCc1ccc(N2CCC(c3ccccc3)CC2)cc1` 40 to 69%

Query `Cc1nc2c(F)cccn2c1C(=O)NCc1ccccc1` next < 40%

* * *

experimental readout: melting point (°C)
Answer with a number only, understood to be in °C.

melting point lookup needed for CCc1nc2ccc(C)cn2c1C(=O)NCc1ccc(N2CCN(c3ccc(F)cc3)CC2)cc1 [compound 231] , thanks. 187.6

Try this molecule next: CCc1nc2ccc(C(F)(F)F)cn2c1C(=O)NCc1ccc(N2CCOCC2)cc1 [compound 273] 207.6

Subsequent entry: CCc1nc2cc(Cl)ccn2c1C(=O)NCc1ccc(N2CCC3CCCCC3C2)cc1 (stereo not shown) [compound 222] 174.2

Quick one: CCc1nc2cc(Br)ccn2c1C(=O)NCc1ccc(N2CCOCC2)cc1 [compound 253] 202.6
